Some molecules, each annotated with its measured pIC50.
Target: MAT2A (Homo sapiens)
Construct: His6
Assay: MAT2A biochemical assay (colorimetric inorganic phosphate detection, PiColorLock)
Settings: recombinant His6-tagged MAT2A 1 μg/ml; 60 minutes preincubation at 25° C.; L-Met 80 μM, ATP 100 μM; 60 minutes reaction; read at 623 nm; read-out: MAT2A Inhibition Score
Description: In the reaction catalyzed by MAT2A enzyme, L-Met and ATP were converted to SAM, inorganic phosphate, and inorganic diphosphate. […] The concentration of malachite green phosphomolybdate produced in the detection reaction is thus directly related to the quantity of product produced by the MAT2A enzyme. Multiple commercial kits exist for this method of phosphate detection and quantification, such as PiColorLock Gold (Innova Biosciences). […]
pIC50: −log10 of the molar value.

compound_structure | pIC50
COc1ccc(-c2c(Nc3nnc(C)s3)[nH]c3c(-c4ccccc4)c(-c4ccccc4)nn3c2=O)cc1 | > 7.00
COc1ccc(-c2c(C)[nH]c3c(N4CCC(F)(F)CC4)c(-c4ccccc4)nn3c2=O)cc1 | > 7.00
COc1ccc(-c2c(C)[nH]c3c(-c4ccccc4)c(-c4ccccc4)nn3c2=O)cn1 | 6.00 to 7.00
Cc1[nH]c2c(N3CCC(F)(F)C3)c(-c3ccccc3)nn2c(=O)c1-c1ccc2ncccc2c1 | 6.00 to 7.00
COc1ccc(-c2c(Nc3cc[nH]n3)[nH]c3c(-c4ccccc4)c(-c4ccccc4)nn3c2=O)cc1 | > 7.00
Cc1[nH]c2c(-c3ccccc3)c(-c3ccccc3)nn2c(=O)c1-c1ccc(O)c(O)c1 | > 7.00
Cc1[nH]c2c(N3CCCCC3)c(-c3ccccc3)nn2c(=O)c1-c1ccncc1 | 6.00 to 7.00
Cc1[nH]c2c(N3CCCCC3)c(-c3ccccc3)nn2c(=O)c1-c1ccc(O)cc1 | > 7.00
COc1ccc(-c2c(Nc3cncnc3)[nH]c3c(-c4ccccc4)c(-c4ccccc4)nn3c2=O)cc1 | > 7.00
COc1ccc(-c2c(Nc3ccccn3)[nH]c3c(C4=CCCCC4)c(-c4ccccn4)nn3c2=O)cc1 | > 7.00
COc1ccc(-c2c(C)n(C)c3c(N4CCCCC4)c(-c4ccccc4)nn3c2=O)cc1 | > 7.00
COc1ccc(-c2c(CO)[nH]c3c(-c4ccccc4)c(-c4ccccc4)nn3c2=O)cc1 | > 7.00
COc1ccc(-c2c(C#N)[nH]c3c(-c4ccccc4)c(-c4ccccc4)nn3c2=O)cc1 | 6.00 to 7.00
Cc1[nH]c2c(N3CCCCC3)c(-c3ccccc3)nn2c(=O)c1-c1ccc2[nH]cnc2c1 | > 7.00
CC(=O)Nc1ccc(-c2c(C)[nH]c3c(N4CCCCC4)c(-c4ccccc4)nn3c2=O)cc1 | 5.00 to 6.00
COc1ccc(-c2c(Nc3nccnc3N)[nH]c3c(-c4ccccc4)c(-c4ccccc4)nn3c2=O)cc1 | > 7.00
O=c1c(-c2ccc3ncccc3c2)c(CO)[nH]c2c(C3=CCCCC3)c(-c3ccccc3)nn12 | > 7.00
Cc1c(-c2ccc(O)cc2)c(=O)n2nc(-c3ccccc3)c(-c3cccs3)c2n1C | > 7.00
CNc1ncnc(Nc2[nH]c3c(-c4ccccc4)c(-c4ccccc4)nn3c(=O)c2-c2ccc(OC)cc2)n1 | > 7.00
O=c1c(-c2ccc3ncccc3c2)c(Nc2ccncn2)[nH]c2c(-c3ccccc3)c(-c3ccccc3)nn12 | > 7.00
CNC(=O)c1[nH]c2c(-c3ccccc3)c(-c3ccccc3)nn2c(=O)c1-c1ccc2ncccc2c1 | 6.00 to 7.00
COc1ccc(-c2c(Nc3cccc(C(N)=O)n3)[nH]c3c(-c4ccccc4)c(-c4ccccc4)nn3c2=O)cc1 | > 7.00
COc1ccc(-c2c(Nc3ccon3)[nH]c3c(C4=CCCCC4)c(-c4ccccc4)nn3c2=O)cc1 | > 7.00
CCOC(=O)c1ncsc1Nc1[nH]c2c(-c3ccccc3)c(-c3ccccc3)nn2c(=O)c1-c1ccc(OC)cc1 | > 7.00
O=c1c(-c2ccc3nccnc3c2)c(CO)[nH]c2c(C3=CCCCC3)c(-c3ccccc3)nn12 | > 7.00
CCOc1ccc(-c2c(C)[nH]c3c(-c4ccccc4)c(-c4ccccc4)nn3c2=O)cc1 | > 7.00
Cc1[nH]c2c(-c3ccccc3)c(-c3ccccc3)nn2c(=O)c1-c1ccc2c(c1)NC(=O)CO2 | > 7.00
Nc1[nH]c2c(-c3ccccc3)c(-c3ccccc3)nn2c(=O)c1-c1ccc(O)cc1 | > 7.00
O=C1NCCN1Cc1[nH]c2c(-c3ccccc3)c(-c3ccccc3)nn2c(=O)c1-c1ccc2ncccc2c1 | 5.00 to 6.00
NCc1[nH]c2c(-c3ccccc3)c(-c3ccccc3)nn2c(=O)c1-c1ccc2c(c1)OCCO2 | > 7.00

====

Target: MAT2A (Homo sapiens, UniProt P31153)
Construct: His6
Sequence (P31153 whole entry): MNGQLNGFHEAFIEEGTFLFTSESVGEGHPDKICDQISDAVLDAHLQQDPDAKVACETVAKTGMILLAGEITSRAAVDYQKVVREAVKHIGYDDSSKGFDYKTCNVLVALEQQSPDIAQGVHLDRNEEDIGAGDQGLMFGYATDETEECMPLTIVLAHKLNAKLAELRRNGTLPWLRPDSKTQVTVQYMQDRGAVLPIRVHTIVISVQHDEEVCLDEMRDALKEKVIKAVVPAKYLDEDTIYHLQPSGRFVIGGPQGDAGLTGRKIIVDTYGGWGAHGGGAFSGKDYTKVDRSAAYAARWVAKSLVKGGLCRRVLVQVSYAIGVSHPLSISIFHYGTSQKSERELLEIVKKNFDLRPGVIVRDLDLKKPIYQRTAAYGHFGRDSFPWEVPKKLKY
Assay: MAT2A biochemical assay (colorimetric inorganic phosphate detection, PiColorLock)
Conditions: recombinant His6-tagged MAT2A 1 μg/ml; 60 minutes preincubation at 25° C.; L-Met 80 μM, ATP 100 μM; 60 minutes reaction; read at 623 nm; read-out: MAT2A Inhibition Score
Source text: In the reaction catalyzed by MAT2A enzyme, L-Met and ATP were converted to SAM, inorganic phosphate, and inorganic diphosphate. […] The concentration of malachite green phosphomolybdate produced in the detection reaction is thus directly related to the quantity of product produced by the MAT2A enzyme. Multiple commercial kits exist for this method of phosphate detection and quantification, such as PiColorLock Gold (Innova Biosciences). […]
pIC50: −log10 of the molar value.
Catalogue of pIC50 readings, one per entry.
measured_endpoint: pIC50

compound | val
COc1ccc(-c2c(Nc3cnc(C#N)cn3)[nH]c3c(C4=CCCCC4)c(-c4ccccc4)nn3c2=O)cc1 [Compound 159] | > 7.00
Cc1[nH]c2c(-c3ccccc3)c(-c3ccccc3)nn2c(=O)c1C1=CCC(O)CC1 (centres unmarked) [Compound 337] | 6.00 to 7.00
Cc1[nH]c2c(C3=CCCCC3)c(-c3ccccc3)nn2c(=O)c1-c1ccc(OC(=O)[C@@H](N)C(C)C)cc1 [Compound 294] | > 7.00
COc1ccc(-c2c(Nc3cnc(C#N)cn3)[nH]c3c(-c4ccccc4)c(-c4ccccc4)nn3c2=O)cc1 [Compound 129] | > 7.00
Cc1[nH]c2c(-c3ccccc3)c(-c3ccnc(Cl)c3)nn2c(=O)c1-c1ccc2ncccc2c1 [Compound 350] | 5.00 to 6.00
COc1ccc(-c2c(Nc3ncncn3)[nH]c3c(-c4ccccc4)c(-c4ccccc4)nn3c2=O)cc1 [Compound 132] | > 7.00
O=c1c(-c2ccc3ncccc3c2)c(Nc2cnccn2)[nH]c2c(C3=CCCCC3)c(-c3ccccc3)nn12 [Compound 175] | > 7.00
COc1ccc(-c2c(Nc3cccc(F)n3)[nH]c3c(-c4ccccc4)c(-c4ccccc4)nn3c2=O)cc1 [Compound 110] | > 7.00
COc1ccc(-c2c(Nc3nccn3C)[nH]c3c(-c4ccccc4)c(-c4ccccc4)nn3c2=O)cc1 [Compound 141] | > 7.00
COc1ccc(-c2c(Nc3ccc(OC)nn3)[nH]c3c(-c4ccccc4)c(-c4ccccc4)nn3c2=O)cc1 [Compound 124] | > 7.00
O=c1c(-c2ccc3ncccc3c2)c(Nc2ccccn2)[nH]c2c(-c3ccccc3)c(-c3ccccc3)nn12 [Compound 168] | > 7.00
Cc1[nH]c2c(-c3ccccc3)c(-c3ccc([N+](=O)[O-])cc3)nn2c(=O)c1-c1ccc2ncccc2c1 [Compound 251] | 5.00 to 6.00
O=c1c(-c2ccc3ncccc3c2)c[nH]c2c(-c3ccccc3)c(-c3ccccc3)nn12 [Compound 244] | > 7.00
COc1ccc(-c2nn3c(=O)c(-c4ccc5ncccc5c4)c(C)[nH]c3c2-c2ccccc2)cc1 [Compound 243] | 5.00 to 6.00
COc1ccc(-c2c(NC(=O)CN)[nH]c3c(-c4ccccc4)c(-c4ccccc4)nn3c2=O)cc1 [Compound 283] | > 7.00
COc1ccc(-c2c(Nc3cc(O)ccn3)[nH]c3c(-c4ccccc4)c(-c4ccccc4)nn3c2=O)cc1 [Compound 109] | > 7.00
COc1ccc(-c2c(CN)[nH]c3c(C4=CCCCC4)c(-c4ccccc4)nn3c2=O)cc1 [Compound 232] | > 7.00
COc1ccc(-c2c(Nc3nccnn3)[nH]c3c(C4=CCCCC4)c(-c4ccccc4)nn3c2=O)cc1 [Compound 161] | > 7.00
COc1ccc(-c2c(Nc3ccccn3)[nH]c3c(-c4ccccc4)c(-c4ccccn4)nn3c2=O)cc1 [Compound 180] | > 7.00
COc1ccc(-c2c(Cn3cnnn3)[nH]c3c(-c4ccccc4)c(-c4ccccc4)nn3c2=O)cc1 [Compound 338] | 6.00 to 7.00
Cc1[nH]c2c(C3=CCCCC3)c(-c3ccccc3)nn2c(=O)c1-c1ccc2ncccc2c1 [Compound 216] | > 7.00
COc1ccc(-c2c(Nc3ccnc(OC)n3)[nH]c3c(C4=CCCCC4)c(-c4ccccc4)nn3c2=O)cc1 [Compound 156] | > 7.00
COc1ccc(-c2c(Nc3cnccn3)[nH]c3c(-c4ccccc4)c(-c4ccccc4)nn3c2=O)cc1 [Compound 126] | > 7.00
COc1ccc(-c2c(Nc3ncnc(N)n3)[nH]c3c(C4=CCCCC4)c(-c4ccccc4)nn3c2=O)cc1 [Compound 164] | > 7.00
Cc1[nH]c2c(C3=CCCCO3)c(-c3ccccc3)nn2c(=O)c1-c1ccc2ncccc2c1 [Compound 217] | > 7.00
COc1cc(-c2c(C)[nH]c3c(-c4ccccc4)c(-c4ccccc4)nn3c2=O)ccc1O [Compound 259] | > 7.00
Cc1[nH]c2c(-c3ccccc3)c(-c3ccccc3)nn2c(=O)c1-c1ccc2ncnc(N)c2c1 [Compound 330] | 6.00 to 7.00
Cc1[nH]c2c(C3=CCCCC3)c(-c3ccccc3)nn2c(=O)c1-c1ccc2nccnc2c1 [Compound 208] | > 7.00
Cc1[nH]c2c(N3CCCCC3)c(-c3ccccc3)nn2c(=O)c1-c1ccc2ncccc2c1 [Compound 206] | > 7.00
